assay_explanation: Selectivity index, ratio of IC50 for human WI38 cells to IC50 for chloroquine-resistant Plasmodium falciparum W2 Indochina
Assay type: toxicity, cell-based, WI-38
experimental_context: WI38 cells versus Plasmodium falciparum W2 Indochina, read-out: Ratio IC50
Just a reminder that ties go to 0: only selectivity ratio strictly below 8 counts as 1.

Req: Please let me know if O=C1C[C@@H]2OCC=C3CN4[C@@H](C5=C[C@@H]6[C@@H]7N(C5=O)c5ccccc5[C@@]75CCN7C/C(=C/CO)[C@@H]6C[C@H]75)C[C@]56c7ccccc7N1[C@H]5[C@@H]2[C@H]3C[C@H]46 shows selectivity ratio below 8.
Resp: 0

Req: Please let me know if C/C=C1/CN2CC[C@]34c5ccccc5N5C(=O)C([C@H]6C[C@]78c9ccccc9N9C(=O)C=C[C@@H]([C@H]97)[C@H]7C[C@@H]8N6C/C7=C/C)=C[C@H]([C@H]53)[C@H]1C[C@H]24 shows selectivity ratio below 8.
Resp: 1

Req: Please let me know if C/C=C1/CN2[C@@H](C3=C[C@@H]4[C@@H]5N(C3=O)c3ccccc3[C@@]53CCN5C/C(=C/C)[C@@H]4C[C@H]53)C[C@@]34c5ccccc5N5C(=O)CC=C([C@H]1C[C@H]23)[C@H]54 shows selectivity ratio below 8.
Resp: 0

Req: Please let me know if C/C=C1/CN2[C@@H](C3=C[C@@H]4[C@@H]5N(C3=O)c3ccccc3[C@@]53CCN5C/C(=C/CO)[C@@H]4C[C@H]53)C[C@@]34c5ccccc5N5C(=O)CC=C([C@H]1C[C@H]23)[C@H]54 shows selectivity ratio below 8.
Resp: 0

The reported measurements were obtained from ChEMBL document CHEMBL1150215.
